molecules and their reported log10 IC50
Measurement target: human AR (Homo sapiens, UniProt P10275)
Sequence (P10275 whole entry): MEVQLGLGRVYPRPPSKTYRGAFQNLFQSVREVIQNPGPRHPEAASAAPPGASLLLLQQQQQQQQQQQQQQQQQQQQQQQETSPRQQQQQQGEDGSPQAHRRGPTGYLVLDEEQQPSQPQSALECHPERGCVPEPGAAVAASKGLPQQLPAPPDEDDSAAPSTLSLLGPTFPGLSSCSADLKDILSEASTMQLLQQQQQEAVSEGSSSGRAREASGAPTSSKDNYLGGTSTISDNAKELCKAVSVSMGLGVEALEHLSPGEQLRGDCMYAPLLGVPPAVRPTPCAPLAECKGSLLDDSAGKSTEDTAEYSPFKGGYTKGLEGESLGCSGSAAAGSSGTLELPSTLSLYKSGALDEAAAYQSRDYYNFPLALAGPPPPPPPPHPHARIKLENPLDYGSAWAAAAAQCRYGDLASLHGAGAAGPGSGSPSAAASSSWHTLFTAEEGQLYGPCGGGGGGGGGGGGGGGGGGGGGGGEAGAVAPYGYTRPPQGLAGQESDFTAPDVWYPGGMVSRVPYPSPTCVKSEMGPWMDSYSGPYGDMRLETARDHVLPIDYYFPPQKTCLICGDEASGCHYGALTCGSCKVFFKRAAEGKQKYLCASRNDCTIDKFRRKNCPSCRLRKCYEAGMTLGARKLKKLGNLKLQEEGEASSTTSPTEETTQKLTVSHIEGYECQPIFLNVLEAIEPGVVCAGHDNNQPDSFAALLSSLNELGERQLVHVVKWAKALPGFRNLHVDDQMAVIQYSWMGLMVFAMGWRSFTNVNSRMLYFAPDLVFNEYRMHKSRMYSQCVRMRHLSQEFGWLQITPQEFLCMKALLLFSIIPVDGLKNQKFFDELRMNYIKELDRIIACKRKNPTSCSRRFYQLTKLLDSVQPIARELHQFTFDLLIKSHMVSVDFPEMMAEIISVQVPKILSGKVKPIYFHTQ
Test: AR-CALUX assay, antiandrogenic (AR antagonistic) activity, U2OS-luc cells
Format: cell-based
Set-up: host or cells: human U2OS-luc (osteoblastic osteosarcoma) cells
Condition info: read-out: IC50
Transform log10 | Measure IC50 | Unit nM

Here is how some molecules turned out for log10 IC50.
INSERT INTO measurements (molecule, readout_name, recorded_result) VALUES
  ('O=[N+]([O-])c1ccc2c3c(cccc13)-c1ccccc1-2', 'log10 IC50', 1.15),
  ('O=C1c2ccccc2C(=O)c2c1ccc1ccccc21 [BAQ, 7,12-benz[a]anthracenequinone]', 'log10 IC50', 3.81),
  ('O=[N+]([O-])c1ccc2c(c1)-c1cccc3cccc-2c13', 'log10 IC50', 2.43),
  ('c1ccc2c(c1)ccc1ccc3ccccc3c12 [B[c]Phe, Benzo[c]phenanthrene]', 'log10 IC50', 2.57);

As a next step, examine the molecule that follows.
IN: Need log10 IC50 of O=C1C(=O)c2ccccc2-c2ccccc21 , thanks.
OUT: 2.59

====

Measurement target: human AR (Homo sapiens)
Test: AR-CALUX assay, antiandrogenic (AR antagonistic) activity, U2OS-luc cells
Format: cell-based
Design: host or cells: human U2OS-luc (osteoblastic osteosarcoma) cells
Readout name: pIC50
// pIC50 here means minus log10 of the molar concentration (mol/L)

IN: Return pIC50 measured with human AR (Homo sapiens) given this compound: O=[N+]([O-])c1cc([N+](=O)[O-])c2ccc3cccc4ccc1c2c43
OUT: 6.68

====

Measurement target: human AR (Homo sapiens)
Test: AR-CALUX assay, antiandrogenic (AR antagonistic) activity, U2OS-luc cells
Type: cell-based
Set-up: host or cells: human U2OS-luc (osteoblastic osteosarcoma) cells
Condition info: present study
Method: The AR- and ER-CALUX assays for the polycyclic aromatic compounds were evaluated according to previously described methods, which used human U2OS-luc cells developed by BioDetection Systems b.v. (Amsterdam, The Netherlands). […] A solution of luciferin was then added, and the luminescence intensity was measured with an ARVO™ X3 luminometer from PerkinElmer (Waltham, MA, USA). […]
Readout name: antiandrogenic activity (in words)

INSERT INTO results (molecule, recorded_result) VALUES
  ('O=C1C=Cc2ccccc2C1=O', 'not observed'),
  ('O=C1c2ccccc2C(=O)c2cc3ccccc3cc21', 'not observed'),
  ('O=C1c2cccc3ccc4ccc5cccc1c5c4c23 [BPO, 6H-benzo[cd]pyren-6-one]', 'not observed');

====

Measurement target: human AR (Homo sapiens, UniProt P10275)
Test: AR-CALUX assay, antiandrogenic (AR antagonistic) activity, U2OS-luc cells
Type: cell-based
Set-up: host or cells: human U2OS-luc (osteoblastic osteosarcoma) cells
Condition info: present study; molar relative potency to flutamide, IC25-based
Note to self: REPmol (IC25) under 0.9 means condition met, ties and anything higher get condition not met.

// known answers, use as guide
INSERT INTO measurements (molecule, classification) VALUES
  ('c1ccc2c(c1)cc1ccc3cccc4c5ccccc5c2c1c34 [DB[a,l]P, dibenzo[a,l]pyrene]', 'condition met'),
  ('O=C1c2ccccc2-c2cc3ccccc3cc21 [B[b]FO, 11H-benzo[b]fluoren-11-one]', 'condition met'),
  ('O=[N+]([O-])c1ccc2c3c(cccc13)-c1ccccc1-2', 'condition not met'),
  ('O=[N+]([O-])c1cc2c3ccccc3ccc2c2ccccc12', 'condition not met');

IN: # TODO verify REPmol (IC25) < 0.9 strictly for this molecule: O=[N+]([O-])c1ccc2c(c1)-c1cccc3cccc-2c13
OUT: condition not met

IN: REPmol (IC25) strictly < 0.9 for this molecule? c1ccc2c3c(ccc2c1)-c1cccc2cccc-3c12 [B[j]FA, benzo[j]fluoranthene]
OUT: condition met
